Biological target: rat TAAR1 (Rattus norvegicus (Rat), UniProt Q923Y9)
Sequence (Q923Y9 whole entry): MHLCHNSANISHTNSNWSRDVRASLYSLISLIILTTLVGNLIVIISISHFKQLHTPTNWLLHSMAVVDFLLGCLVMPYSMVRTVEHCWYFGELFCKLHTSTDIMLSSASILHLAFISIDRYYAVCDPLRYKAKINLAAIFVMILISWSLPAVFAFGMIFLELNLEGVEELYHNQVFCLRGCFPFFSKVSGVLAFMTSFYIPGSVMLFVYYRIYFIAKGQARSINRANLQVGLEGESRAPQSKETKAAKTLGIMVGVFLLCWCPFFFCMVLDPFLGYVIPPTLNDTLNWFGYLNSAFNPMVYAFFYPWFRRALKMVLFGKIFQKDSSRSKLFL
Assay: Radioligand binding assay on rat TAAR1
Conditions: rat TAAR1 (second value of the cell), HEK-293 membranes; read-out: Ki (μM) mouse/rat
// boundary case: Ki equal to 0.04 µM maps to Not fulfilled; strictly smaller maps to Fulfilled

>  <compound>
Clc1ccc(Nc2ccc([C@@H]3CNCCO3)cc2)nc1

>  <label>
Not fulfilled

$$$$
>  <compound>
Brc1ccc(Nc2ccc([C@@H]3CNCCO3)cn2)nc1

>  <label>
Not fulfilled

$$$$
>  <compound>
Clc1ccc(Nc2ccc(C3CNCCO3)cc2)cc1 (racemic)

>  <label>
Fulfilled

$$$$
>  <compound>
Fc1cc(C2CNCCO2)ccc1Nc1ncc(Cl)cn1 (racemic)

>  <label>
Fulfilled

$$$$
>  <compound>
Clc1cc(Nc2ccc([C@H]3CNCCO3)cc2)nc2ccccc12

>  <label>
Fulfilled

$$$$

Reference source: patent US8802673B2
